From: patent US20100041068A1

# system-name: cAMP-dependent protein kinase (PKA) (Mus musculus, UniProt P05132)
# assay-method-text: PKA inhibitor IC50, standard radioactive ATP method
# Type: biochemical
No end group written: not given here.

{"columns": ["substance", "IC50 / nM"],
 "data": [
  ["GRTGRRNAI-NH2 (C-terminus assumed) [PKI 14-22]", 1600]
]}
